The reported numbers originate from ChEMBL document CHEMBL2169810.

Reported pIC50 for target or system Carbonic anhydrase 9 (Homo sapiens, UniProt Q16790), by entry.
pIC50: −log10 of the molar value.

{"columns": ["structure_as_smiles", "pIC50"],
 "data": [
  ["C[C@@H](NC(=O)P(=O)(O)O)C1CCCCC1", 5.09],
  ["O=C(NCCCCCNS(=O)(=O)c1ccc(Oc2ccccc2)cc1)P(=O)(O)O", 5.20],
  ["O=C(NCCc1ccccc1)P(=O)(O)O", 5.22],
  ["N[C@@H]1CCCC[C@@H]1NC(=O)P(=O)(O)O", 5.07],
  ["O=C(NCCN1CCCC1)P(=O)(O)O", 5.06],
  ["CCOP(=O)(OCC)C(=O)NCCCCNC(=O)P(=O)(OCC)OCC", 5.02],
  ["O=C(NC1CCCC1)P(=O)(O)O", 5.05]
]}
